- TARGET_OR_SYSTEM: T1, NECAP1 PHear domain (NECAP 1-133), wild type (UniProt Q8NC96 1-133)
- T1 chain: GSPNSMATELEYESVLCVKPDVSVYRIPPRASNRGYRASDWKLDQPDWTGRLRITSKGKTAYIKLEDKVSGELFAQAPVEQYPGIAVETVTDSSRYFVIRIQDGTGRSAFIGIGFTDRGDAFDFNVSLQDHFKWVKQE
- MEASUREMENT_NOTES: ITC; + FxDxF peptide
Square brackets hold non-standard residues; d marks the D form. Ends that are not written are not given here. pT = C[C@@H](OP(=O)(O)O)[C@H](N)C(=O)O
QUANTITY_MEASURED: Kd
The reply must contain the numeric value and, after it, the unit.

input: Entry SQITSQV[pT]GQIGWRR (also called Peptide μ2linker Phos; phosphorylated μ2 peptide; source: synthetic peptide (Genscript)) [T156-phosphorylated μ2 linker peptide (residues 149–163)] : reported Kd = ?
output: 44.9 µM
